assay: molar heat capacity at constant pressure; conditions: 254.15 K; 101.33 kPa; Crystal; Small sample (50 mg) DSC
assay-readout: molar heat capacity at constant pressure (J/K/mol)
Write the value in J/K/mol as a bare number.

Past entries and their recorded results:
{"columns": ["compound", "meas-value"],
 "data": [
  ["O[C@H]1[C@H](O)[C@@H](O)[C@H](O)[C@@H](O)[C@H]1O [cis-1,2,3,5-trans-4,6-cyclohexanehexol]", 184.08],
  ["OC[C@@H](O)[C@H](O)[C@@H](O)CO", 177.72],
  ["OC[C@@H](O)[C@@H](O)CO", 140.97],
  ["OC[C@H](O)C(O)[C@@H](O)CO [L-(-)-arabitol]", 175.18]
]}

The recorded molar heat capacity at constant pressure for entry OC[C@@H](O)[C@@H](O)[C@H](O)[C@H](O)CO equals 197.56

The recorded molar heat capacity at constant pressure for entry OC[C@@H](O)C(O)[C@H](O)CO equals 170.21
